Target: Platelet-derived growth factor receptor beta (Homo sapiens) (UniProt P09619)
Sequence (P09619 whole entry): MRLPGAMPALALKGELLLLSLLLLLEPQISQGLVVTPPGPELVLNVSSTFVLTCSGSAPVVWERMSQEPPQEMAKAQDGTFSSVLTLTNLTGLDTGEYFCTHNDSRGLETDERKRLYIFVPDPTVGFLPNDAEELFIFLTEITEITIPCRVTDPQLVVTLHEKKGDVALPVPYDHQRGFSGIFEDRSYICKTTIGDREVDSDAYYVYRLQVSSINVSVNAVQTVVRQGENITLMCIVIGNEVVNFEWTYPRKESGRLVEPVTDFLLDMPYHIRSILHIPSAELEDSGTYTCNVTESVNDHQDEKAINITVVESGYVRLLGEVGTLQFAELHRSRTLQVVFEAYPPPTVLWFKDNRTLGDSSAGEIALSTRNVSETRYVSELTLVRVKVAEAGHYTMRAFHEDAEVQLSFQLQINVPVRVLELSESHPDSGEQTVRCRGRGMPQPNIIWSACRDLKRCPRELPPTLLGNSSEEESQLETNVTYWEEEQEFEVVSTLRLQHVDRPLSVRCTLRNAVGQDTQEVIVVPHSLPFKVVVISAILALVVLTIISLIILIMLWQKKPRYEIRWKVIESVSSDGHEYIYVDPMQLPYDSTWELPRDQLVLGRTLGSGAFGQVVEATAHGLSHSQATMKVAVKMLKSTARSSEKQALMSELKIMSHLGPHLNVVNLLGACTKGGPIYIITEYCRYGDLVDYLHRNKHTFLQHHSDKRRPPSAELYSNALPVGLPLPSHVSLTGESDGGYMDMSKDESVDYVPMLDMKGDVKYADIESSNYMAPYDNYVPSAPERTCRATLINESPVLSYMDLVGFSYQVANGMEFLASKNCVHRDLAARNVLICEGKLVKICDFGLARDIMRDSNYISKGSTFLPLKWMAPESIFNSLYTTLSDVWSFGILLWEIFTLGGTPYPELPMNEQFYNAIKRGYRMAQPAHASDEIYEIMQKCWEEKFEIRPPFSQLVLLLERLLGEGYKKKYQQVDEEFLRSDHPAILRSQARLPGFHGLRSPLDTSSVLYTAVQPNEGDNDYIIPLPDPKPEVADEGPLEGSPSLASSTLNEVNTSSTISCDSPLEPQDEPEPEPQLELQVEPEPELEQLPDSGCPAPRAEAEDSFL
Experiment: Enzymatic radiometric [Km ATP] KinaseProfiler LeadHunter assay, kinase: PDGFR-beta, catalogue number: 14-463KP The assay has been performed by Eurofins Discovery.
Conditions: ATP concentration 200.0 uM, Test compound concentration 10.0 uM
Recorded measurements of Activity, one per entry

| CHEMICAL SMILES | TARGET SYSTEM | Activity (%) |
| --- | --- | --- |
| CC(C)[C@@H](Nc1ncnc2[nH]ccc12)c1ccc2c(c1)S(=O)(=O)CCC2 | Platelet-derived growth factor receptor beta (Homo sapiens) (UniProt P09619) | 99 |
| CC(C)[C@H](Nc1ncnc2[nH]ccc12)c1ccc2c(c1)S(=O)(=O)CCC2 | Platelet-derived growth factor receptor beta (Homo sapiens) (UniProt P09619) | 89 |
| Cc1nn(C)cc1-c1cc2c(N[C@H](c3ccc4c(c3)S(=O)(=O)CCC4)C(C)C)ncnc2[nH]1 | Platelet-derived growth factor receptor beta (Homo sapiens) (UniProt P09619) | 97 |
| CC(C)[C@@H](Nc1ncnc2[nH]c(C(=O)N[C@@H]3CCN(C)C3)cc12)c1ccc2c(c1)S(=O)(=O)CCC2 | Platelet-derived growth factor receptor beta (Homo sapiens) (UniProt P09619) | 83 |
| C[C@H](C(=O)O)[C@@H](NC(=O)c1ncnc2[nH]ccc12)c1ccc(Br)cc1 | Platelet-derived growth factor receptor beta (Homo sapiens) (UniProt P09619) | 110 |
| CNC(=O)Cn1cc(-c2cc3c(N[C@@H](c4ccc5c(c4)S(=O)(=O)CCC5)C(C)C)ncnc3[nH]2)cn1 | Platelet-derived growth factor receptor beta (Homo sapiens) (UniProt P09619) | 90 |
| COc1ccc([C@H](Cc2nnn[nH]2)NC(=O)c2ncnc3[nH]ccc23)cc1 | Platelet-derived growth factor receptor beta (Homo sapiens) (UniProt P09619) | 103 |
| Cn1ncc(-c2cc3c(N[C@@H](c4ccc5c(n4)OCCO5)C(C)(C)C)ncnc3[nH]2)c1C#N | Platelet-derived growth factor receptor beta (Homo sapiens) (UniProt P09619) | 100 |
| CC(C)[C@H](Nc1ncnc2[nH]c(-c3cnn(C)c3C#N)cc12)c1ccc2c(n1)OCCO2 | Platelet-derived growth factor receptor beta (Homo sapiens) (UniProt P09619) | 92 |
| COc1ccc([C@@H](Cc2nnn[nH]2)NC(=O)c2ncnc3[nH]ccc23)cc1 | Platelet-derived growth factor receptor beta (Homo sapiens) (UniProt P09619) | 102 |
| CNCc1cc(-c2cc3c(N[C@@H](c4ccc5c(c4)S(=O)(=O)CCC5)C(C)C)ncnc3[nH]2)co1 | Platelet-derived growth factor receptor beta (Homo sapiens) (UniProt P09619) | 89 |
